Target: GAK (Homo sapiens)
Sequence (O14976 12-347 limits assumed): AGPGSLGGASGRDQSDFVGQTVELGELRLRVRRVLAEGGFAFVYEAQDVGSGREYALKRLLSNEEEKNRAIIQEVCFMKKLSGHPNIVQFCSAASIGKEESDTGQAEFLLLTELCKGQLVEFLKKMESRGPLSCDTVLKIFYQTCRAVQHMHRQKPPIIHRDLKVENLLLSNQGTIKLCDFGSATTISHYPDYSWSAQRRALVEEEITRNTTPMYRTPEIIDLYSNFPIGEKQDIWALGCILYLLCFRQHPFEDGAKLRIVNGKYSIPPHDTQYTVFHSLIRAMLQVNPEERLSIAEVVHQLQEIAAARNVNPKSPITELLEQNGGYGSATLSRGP
Assay: TR-FRET binding displacement assay
Details: ATP site tracer displacement, 16-point dose response
Endpoint: Ki
Kindly report the value followed by its unit.

Below: 4 compounds and their reported Ki.
# Item Smiles, Ki
rows = [
    ("COc1ccc2c(Nc3cc(OC)c(OC)c(OC)c3)ccnc2c1", "2.6 nM"),
    ("COc1ccc2nccc(Nc3cc(OC)c(OC)c(OC)c3)c2c1", "13 nM"),
    ("COc1cc(Nc2ccnc3cc(C#N)ccc23)cc(OC)c1OC", "2.7 nM"),
    ("COc1cc(Nc2ccnc3cc(C(F)(F)F)ccc23)cc(OC)c1OC", "6.2 nM"),
]

According to the records, this compound COc1cc(Nc2ccnc3ccccc23)cc(OC)c1OC displays Ki of 40 nM

What the record says about COc1cc(Nc2ccnc3ccc(C#N)cc23)cc(OC)c1OC : Ki is 1.5 nM

Entry C#Cc1cccc(Nc2c(C#N)cnc3cc(OC)c(OC)cc23)c1 — recorded Ki = 0.32 nM
